Data origin: patent US7494714B2

Biological target: fibrinogen (Bos taurus, UniProt P02672+P02676+P12799)
Sequence (P02672 20-615): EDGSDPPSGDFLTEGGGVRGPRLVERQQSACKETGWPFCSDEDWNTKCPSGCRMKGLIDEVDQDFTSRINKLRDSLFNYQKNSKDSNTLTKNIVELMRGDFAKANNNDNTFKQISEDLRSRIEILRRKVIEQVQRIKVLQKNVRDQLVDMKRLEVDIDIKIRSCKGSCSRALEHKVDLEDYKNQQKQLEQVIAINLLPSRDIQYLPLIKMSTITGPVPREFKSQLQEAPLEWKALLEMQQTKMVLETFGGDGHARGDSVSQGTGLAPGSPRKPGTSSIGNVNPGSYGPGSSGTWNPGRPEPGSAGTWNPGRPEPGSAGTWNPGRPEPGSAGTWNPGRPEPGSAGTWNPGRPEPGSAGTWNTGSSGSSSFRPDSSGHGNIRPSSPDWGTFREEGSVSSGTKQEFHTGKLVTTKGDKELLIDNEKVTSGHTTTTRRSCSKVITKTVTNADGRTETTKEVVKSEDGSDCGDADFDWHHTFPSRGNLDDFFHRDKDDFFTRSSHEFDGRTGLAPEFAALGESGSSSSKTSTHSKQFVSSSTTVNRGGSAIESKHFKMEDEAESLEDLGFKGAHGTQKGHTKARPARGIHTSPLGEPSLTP
Sequence (P02676 whole entry): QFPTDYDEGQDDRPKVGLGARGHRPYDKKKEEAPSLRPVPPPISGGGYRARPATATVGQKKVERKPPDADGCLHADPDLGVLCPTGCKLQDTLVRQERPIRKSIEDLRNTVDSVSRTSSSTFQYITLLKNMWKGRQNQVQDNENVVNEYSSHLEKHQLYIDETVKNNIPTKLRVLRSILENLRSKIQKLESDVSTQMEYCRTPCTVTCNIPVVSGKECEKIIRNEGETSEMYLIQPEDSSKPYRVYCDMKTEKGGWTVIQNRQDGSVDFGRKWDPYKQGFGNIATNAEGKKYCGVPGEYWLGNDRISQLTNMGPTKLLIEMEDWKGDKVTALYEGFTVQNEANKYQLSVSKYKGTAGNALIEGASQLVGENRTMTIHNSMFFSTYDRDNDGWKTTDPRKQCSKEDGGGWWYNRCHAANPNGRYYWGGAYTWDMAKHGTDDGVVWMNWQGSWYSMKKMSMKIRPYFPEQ
Sequence (P12799 25-444): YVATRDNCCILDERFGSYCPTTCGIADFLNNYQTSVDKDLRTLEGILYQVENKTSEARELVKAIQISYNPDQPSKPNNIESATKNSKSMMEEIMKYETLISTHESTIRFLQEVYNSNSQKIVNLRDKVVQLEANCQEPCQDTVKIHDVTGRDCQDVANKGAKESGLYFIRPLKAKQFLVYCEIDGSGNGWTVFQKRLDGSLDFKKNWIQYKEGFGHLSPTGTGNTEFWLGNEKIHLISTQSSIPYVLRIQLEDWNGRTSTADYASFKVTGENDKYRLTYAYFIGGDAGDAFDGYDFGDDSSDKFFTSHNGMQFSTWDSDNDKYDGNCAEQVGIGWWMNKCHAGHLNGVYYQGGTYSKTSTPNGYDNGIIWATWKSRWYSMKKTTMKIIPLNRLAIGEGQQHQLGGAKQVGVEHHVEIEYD
Assay: SPR adsorption of fibrinogen to SAMs / grafted polymer films
Type: binding, bovine
Conditions: fibrinogen; single-component SAMs (a, RSH) and mixed SAMs (b, RNH2)
Where a SMILES comes first, the peptide text is derived from it. [ ]: non-standard residue; d: D form. Sar = CNCC(=O)O
MEASURED QUANTITY: % ML 3 min (%)
// return numeric value only (unit: %, not printed)

Given "COC[C@H](OC)[C@H](OC)[C@H](OC)[C@@H](CN(C)C(=O)CCCCCCCCCCS)OC" , respond with its % ML 3 min.
0.2

Given OCCOCCOCCOCCCCCCCCCCCS [Entry 3a, HOEG3(CH2)11SH, reference compound] , respond with its % ML 3 min.
0.2

Given CNCC(=O)N(C)CC(=O)N(C)CC(=O)N(C)C [H(CH3)N(Sar)3N(CH3)2] (H-[Sar]-[Sar]-[Sar]-NMe2) , respond with its % ML 3 min.
0.7

Given "CN(CCN(C)P(=O)(N(C)C)N(C)C)C(=O)CCCCCCCCCCS" , respond with its % ML 3 min.
13

Given "CC(=O)N1CCNCC1" , respond with its % ML 3 min.
17

Given "CNC[C@H](OC)[C@H](OC)[C@H](OC)[C@H](COC)OC" , respond with its % ML 3 min.
0.8
